Tested on: NCI-H460
Assay: NCI tumour cell line growth inhibition, 48 h
The source made the active and inactive calls. Rule as the data show it: active = GI50 up to about 1.1 µM and inactive = higher.
METRIC: GI50

Query block: Annotate the compound CCOC(=O)CO/N=C1/C(=C2/C(=O)Nc3ccccc32)Nc2ccccc21 with its measured GI50.
Result block: > 100 µM (inactive)

Query block: Annotate the compound O=C(CC(C(=O)c1ccsc1)c1cccs1)c1cccs1 (stereo unspecified) with its measured GI50.
Result block: 49 µM (inactive)

Query block: Annotate the compound C[C@H](CCC(=O)O)[C@H]1CC[C@H]2[C@@H]3[C@@H](O)C[C@@H]4C[C@H](O)CC[C@]4(C)[C@H]3C[C@H](O)[C@]12C with its measured GI50.
Result block: > 100 µM (inactive)

Query block: Annotate the compound SC1=NNC2(C(Cl)=N1)c1ccccc1-c1ccccc12 with its measured GI50.
Result block: > 10 µM (inactive)

Query block: Annotate the compound [N-]=[N+]=N/C1=C/CCCCC(=O)C1 with its measured GI50.
Result block: > 100 µM (inactive)

Query block: Annotate the compound COc1cccc(C2ON=C(c3ccccc3)N2C23CC4CC(CC(C4)C2)C3)c1 (stereo unspecified) with its measured GI50.
Result block: > 10 µM (inactive)
